Reported Tm values follow for various sequences
# PROCEDURE_DETAILS: melting temperature; fluorescence melt of hairpins on a sequencing array, two-state fit, raised by 9.35 °C to match UV melts
# RECORDED_CONDITIONS: sodium 0.088 M
A number alone suffices; assume °C.

Some solved entries appear below for comparison.
GTTGTGGCGAAAGCCAAC (((..(((....))))))    53.7
GTTGTTGGAAACGACAAC (((((.(....).)))))    48.4
GGGGAACGAAAGTTGCCC (((.(((....))).)))    64
GATCGTTGGTACGATC ((((((....))))))    55.2
GCATTCGAAAGAAGGTGC ((((((....)))..)))    36.7
GCTTAGCGAAAGCTTAGC (((.(((....))).)))    51.9

Asked: Look up and state reported Tm for ACAACGAAAGTTGT (((((....)))))
Given back: 53.6

Asked: Look up and state reported Tm for GGTTAACCGAAAGGTACC (((..(((....))))))
Given back: 38

Asked: Look up and state reported Tm for GAGGGGGAAACCCCTC ((((((....))))))
Given back: 65.4

Asked: Look up and state reported Tm for GGTGTGGGAAACCACGTC (..((((....))))..)
Given back: 39.3

Asked: Look up and state reported Tm for GATCGAATCTCGATC ((((((...))))))
Given back: 51

Asked: Look up and state reported Tm for GATCGATATTTCGATC ((((((....))))))
Given back: 53.1

Asked: Look up and state reported Tm for GATCCCGAGGGGATC ((((((...))))))
Given back: 62.6

* * *

# PROCEDURE_DETAILS: melting temperature; fluorescence melt of hairpins on a sequencing array, two-state fit, raised by 9.35 °C to match UV melts
# RECORDED_CONDITIONS: sodium 0.088 M
Reported Tm values follow for various sequences
A number alone suffices; assume °C.

GGTGTCGAAAGACAGACC ((((((....)))..)))    44
GCTATGCGAAAGCAGCGC ((..(((....)))..))    54.2
GCACAAGGAAACTTGTAC (.(((((....))))).)    32.9
GGCACTCGAAAGAGCGCC (((.(((....))).)))    59.3
GGCGTCGAAAGACAGCC ((((((....))).)))    63.7

Asked: Look up and state reported Tm for GATCCATTATTGGATC ((((((....))))))
Given back: 52.7

Asked: Look up and state reported Tm for GGCACCGGAAACGGCACC ((..(((....)))..))
Given back: 30.9

Asked: Look up and state reported Tm for GTCAAAGGAAACTTTGAC (((((((....)))))))
Given back: 55.8

Asked: Look up and state reported Tm for GATCTCTCATGAGATC ((((((....))))))
Given back: 52.3

Asked: Look up and state reported Tm for GCTGTCGGAAACGATAGC (((.(((....))).)))
Given back: 53.4

Asked: Look up and state reported Tm for GGACGCGAAAGCGCATCC ((((((....)))..)))
Given back: 34.5

Asked: Look up and state reported Tm for GATCTAGTCTAGATC ((((((...))))))
Given back: 41.1

Asked: Look up and state reported Tm for GATCTCATCGAGATC ((((((...))))))
Given back: 55.8

Asked: Look up and state reported Tm for GATCCGATACGGATC ((((((...))))))
Given back: 59.6

Asked: Look up and state reported Tm for GCCTAGCGAAAGCTTAGC ((..(((....)))..))
Given back: 36.8

Asked: Look up and state reported Tm for GTTCTCGAAAGAGTAAAC ((((((....)))..)))
Given back: 27.9

Asked: Look up and state reported Tm for GCGTTCGAAAGAACCGC ((((((....))).)))
Given back: 54.3

Asked: Look up and state reported Tm for GTACGGTCGAAAGACTAC (((..(((....))))))
Given back: 26.8

Asked: Look up and state reported Tm for GGATGGCGAAAGCCTTCC (((.(((....))).)))
Given back: 56.6

Asked: Look up and state reported Tm for GGGCACGCGAAAGCGCCC (((..(((....))))))
Given back: 58.7

* * *

# PROCEDURE_DETAILS: melting temperature; fluorescence melt of hairpins on a sequencing array, two-state fit, raised by 9.35 °C to match UV melts
# RECORDED_CONDITIONS: sodium 0.088 M
Outcome: rule met for Tm of at least 40 °C; rule not met for anything lower.

GATCATGACATGATC ((((((...))))))    rule met

Asked: Identify whether the reported Tm of the following sequence is 40 °C or greater: GAGAGCGAAAGCTTGCTC ((((((....)))..)))
Given back: rule not met

Asked: Identify whether the reported Tm of the following sequence is 40 °C or greater: GGACAGCGAAAGCTCTCC (((.(((....))).)))
Given back: rule not met

* * *

# PROCEDURE_DETAILS: melting temperature; fluorescence melt of hairpins on a sequencing array, two-state fit, raised by 9.35 °C to match UV melts
# RECORDED_CONDITIONS: sodium 0.088 M
Reported Tm values follow for various sequences
A number alone suffices; assume °C.

GCAAGAGGAAACTCTCGC ((.((((....)))).))    37.6
GAATCCGAAAGGAAATTC ((((((....)))..)))    29.1
GGTATTGGAAACGATACC (((((.(....).)))))    44.4
GATCTCACACGAGATC ((((((....))))))    52.4

Asked: Look up and state reported Tm for GATCAGGAGGCTGATC ((((((....))))))
Given back: 48.2

Asked: Look up and state reported Tm for GGTACGAAAGTACC (((((....)))))
Given back: 65.8

Asked: Look up and state reported Tm for GCGGTCGAAAGACGCCGC ((((((....)))..)))
Given back: 56.4

Asked: Look up and state reported Tm for GCGGAGTGCCGC ((((....))))
Given back: 57.1

* * *

Reported Tm values follow for various sequences
# PROCEDURE_DETAILS: melting temperature; fluorescence melt of hairpins on a sequencing array, two-state fit, raised by 9.35 °C to match UV melts
# RECORDED_CONDITIONS: sodium 0.088 M
A number alone suffices; assume °C.

Some solved entries appear below for comparison.
GGTAGCGAAAGCTCAACC ((((((....)))..)))    34.9
GATCCCGGCGGGGATC ((((((....))))))    61.3
GATCAGAAATCTGATC ((((((....))))))    46

Asked: Look up and state reported Tm for GCTTGCGGAAACACAAGC (((((.(....).)))))
Given back: 46.8

Asked: Look up and state reported Tm for GCCGTAACGAAAGTTGGC (((..(((....))))))
Given back: 49.4

Asked: Look up and state reported Tm for GTGCGTGGAAACACGCGC (.(((((....))))).)
Given back: 65.9

* * *

Reported Tm values follow for various sequences
# PROCEDURE_DETAILS: melting temperature; fluorescence melt of hairpins on a sequencing array, two-state fit, raised by 9.35 °C to match UV melts
# RECORDED_CONDITIONS: sodium 0.088 M
A number alone suffices; assume °C.

Some solved entries appear below for comparison.
GCAACCGAAAGGTGTTGC ((((((....)))..)))    50
GATCGGGCAACCGATC ((((((....))))))    65.4
GCATCCGAAAGGATCTGC ((((((....)))..)))    46.5

Asked: Look up and state reported Tm for GATGGACGAAAGTCATC (((.(((....))))))
Given back: 45.7

Asked: Look up and state reported Tm for GATCCACGGTTGGATC ((((((....))))))
Given back: 48.9

Asked: Look up and state reported Tm for GACTTACGAAAGTAGTC (((.(((....))))))
Given back: 43.1

* * *

# PROCEDURE_DETAILS: melting temperature; fluorescence melt of hairpins on a sequencing array, two-state fit, raised by 9.35 °C to match UV melts
# RECORDED_CONDITIONS: sodium 0.088 M
REPORTED_METRIC: Tm (°C)
A number alone suffices; assume °C.

GCTCAACGAAAGTTTAGC (((.(((....))).)))    44.5
GATCCAGCTTTGGATC ((((((....))))))    51.5

Asked: Look up and state reported Tm for GATTTCCGAAAGGACATC (((.(((....))).)))
Given back: 38

Asked: Look up and state reported Tm for GATCCGTTTACGGATC ((((((....))))))
Given back: 68.1

Asked: Look up and state reported Tm for GACCAGGGAAACCCAGTC (((..((....))..)))
Given back: 29.1
